pIC50: −log10 of the molar value.
A short record of pIC50 observed with Human factor D (Homo sapiens (Human)) follows.

For orientation, consider the following solved cases.
CC(=O)c1cn(CC(=O)N2C[C@H](F)[C@@H](OCC3CC3)[C@H]2C(=O)NCc2cccc(Cl)c2F)c2cc(O)ccc12 [Compound 21]
> 6.00
CC(=O)c1cn(CC(=O)N2CC(F)C(OCC3CC3)[C@H]2C(=O)NCc2cccc(Cl)c2F)c2cc(O)ccc12 (some centres unmarked) [Compound 25]
> 6.00
CC(=O)c1cn(CC(=O)N2[C@H](C(=O)NCc3cccc(Cl)c3F)C[C@@H]3CCCC[C@@H]32)c2cc(O)ccc12 [Compound 35]
> 6.00
NC(=O)N1C[C@H](F)C[C@H]1Cn1cc(-c2ccc(F)c(Cl)c2)nn1 [Compound 30]
< 5.00

Look at each molecule and report its pIC50.
1. O=C(NCc1cccc(Cl)c1F)[C@@H]1C[C@@H](F)CN1C(=O)Cn1cc([N+](=O)[O-])c2ccccc21 [Compound 46]
2. CC(=O)c1cn(CC(=O)N2C[C@H](F)C[C@H]2C(=O)Nc2cccc(-c3ccccc3Cl)c2F)c2c(C#N)cccc12 [Compound 79]
3. CC(=O)c1cn(CC(=O)N2C[C@H](F)C[C@H]2Cn2cc(-c3ccc(F)cc3)nn2)c2ccccc12 [Compound 27]
4. NC(=O)n1cc(NC(=O)C2=C(C(=O)NCc3cccc(Cl)c3F)CCC2)c2ccccc21 [Compound 31]
5. CC(=O)c1cn(C(C)(C)C(=O)N2C[C@H](F)C[C@H]2C(=O)NCc2cccc(Cl)c2F)c2ccccc12 [Compound 56]
6. NC(=O)c1nn(CC(=O)N2C[C@H](F)C[C@H]2C(=O)Nc2cccc(-c3cc(OC(F)(F)F)ccc3Cl)c2F)c2ccccc12 [Compound 120]
7. CCOC(=O)CC(=O)N1CCc2c(n(CC(=O)N3C[C@H](F)C[C@H]3C(=O)NCc3cccc(Cl)c3F)c3ccccc23)C1 [Compound 70]

> 6.00
> 6.00
< 5.00
< 5.00
< 5.00
> 6.00
< 5.00

Could I get pIC50 for every one of these entries?
1. CC(=O)c1cn(CC(=O)N2C[C@H](F)C[C@H]2C(=O)Nc2cccc(Br)n2)c2ccc(C3(NC(=O)OC(C)(C)C)CC3)cc12 [Compound 123]
2. NC(=O)n1cc(NC(=O)N2C[C@H](F)C[C@H]2Cn2cc(-c3ccc(F)cc3)nn2)c2ccccc21 [Compound 28]
3. CC(=O)c1cn(CC(=O)N2C[C@H](F)C[C@H]2C(=O)Nc2cccc(-c3ccccc3Cl)c2F)c2cccc(C#N)c12 [Compound 97]

> 6.00
< 5.00
> 6.00

====

Measured IC50 on Human factor D (Homo sapiens (Human), UniProt P00746) follows.
Sequence (P00746 26-253): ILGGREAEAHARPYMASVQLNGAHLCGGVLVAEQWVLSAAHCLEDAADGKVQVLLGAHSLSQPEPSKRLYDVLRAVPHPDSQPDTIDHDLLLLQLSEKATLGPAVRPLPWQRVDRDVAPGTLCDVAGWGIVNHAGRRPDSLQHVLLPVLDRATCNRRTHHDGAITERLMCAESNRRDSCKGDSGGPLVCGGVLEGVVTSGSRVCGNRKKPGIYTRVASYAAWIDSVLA

O=C(NCc1cccc(Cl)c1F)[C@@H]1C[C@@H](F)CN1C(=O)Cn1nc(-c2cnc[nH]2)c2ccncc21 [Compound 75]
< 1 µM

Parameter requested: IC50. Apply to each item below.
1. NC(=O)c1cn(CC(=O)N2C[C@H](F)C[C@H]2C(=O)Nc2cccc(-c3ccccc3Cl)c2F)c2sccc12 [Compound 98]
2. NC(=O)c1nn(CC(=O)N2C[C@H](F)C[C@H]2C(=O)Nc2cccc(-c3ccc(F)c(F)c3Cl)c2F)c2ccccc12 [Compound 92]
3. CC(=O)c1cn(CC(=O)N2C[C@H](F)C[C@H]2C(=O)N2Cc3ccccc3C2)c2ccccc12 [Compound 33]
4. COc1ccc2c(O[C@@H]3C[C@@H](C(=O)NCc4cccc(Cl)c4F)N(C(=O)Cn4cc(C(C)=O)c5ccccc54)C3)cc(-c3ccccc3)nc2c1 [Compound 29]

["< 1 µM", "< 1 µM", "> 10 µM", "> 10 µM"]

====

Biological target: Human factor D (Homo sapiens (Human))
Kindly supply the reported IC50 values for the records listed here.

O=C(O)CCC(=O)N1CCc2c(n(CC(=O)N3C[C@H](F)C[C@H]3C(=O)NCc3cccc(Cl)c3F)c3ccccc23)C1
> 10000 nM

Answer for every listed entry: what is its IC50? The entries follow.
1. CC(=O)c1cn(CC(=O)N2[C@@H]3CCC[C@@H]3C[C@H]2C(=O)NCc2cccc(Cl)c2F)c2cc(O)ccc12
2. NC(=O)c1nn(CC(=O)N2C[C@H](F)C[C@H]2C(=O)Nc2cccc(-c3cc(F)c(F)cc3Cl)c2F)c2cnccc12
3. Cc1cc2c(s1)c(C(N)=O)nn2CC(=O)N1C[C@H](F)C[C@H]1C(=O)Nc1cccc(-c2ccccc2Cl)c1F
4. CC(=O)c1cn(CC(=O)N2C[C@H](F)C[C@H]2C(=O)Nc2cccc(-c3ccccc3Cl)c2F)c2c(-c3ccc(Cl)nc3)cccc12

["< 1000 nM", "< 1000 nM", "< 1000 nM", "< 1000 nM"]

Look at each molecule and report its IC50.
1. NC(=O)c1nn(CC(=O)N2C[C@H](F)C[C@H]2C(=O)Nc2cccc(Br)n2)c2ccsc12
2. CC(=O)c1cn(CC(=O)N2C[C@H](F)C[C@H]2c2ncc(-c3cccc(Cl)c3)[nH]2)c2ccccc12

["< 1000 nM", "> 10000 nM"]

====

Molecular target: Human factor D (Homo sapiens (Human))
Assay: Human Factor D Assay
Assay type: biochemical
Settings: human factor D 80 nM, substrate Z-L-Lys-SBzl, DTNB, OD405
measured-parameter: IC50

Examples with answers:
CC(=O)Nc1cn(CC(=O)N2C[C@H](F)C[C@H]2C(=O)NCc2cccc(Cl)c2F)c2ccccc12
< 1000 nM
CC(=O)c1cn(CC(=O)N2[C@H](C(=O)NCc3cccc(Cl)c3F)C[C@@H]3CCCC[C@@H]32)c2ccccc12
< 1000 nM
NC(=O)c1nn(CC(=O)N2C[C@H](F)C[C@H]2C(=O)Nc2cccc(-c3c(F)cc(F)cc3Cl)c2)c2cnccc12
< 1000 nM
CC(=O)c1cn(CC(=O)N2C[C@H](F)C[C@H]2C(=O)Nc2cccc(Br)n2)c2ccc(C3(NC(=O)c4ncccn4)CC3)cc12
< 1000 nM
CC(=O)n1cc(NC(=O)N2C[C@H](F)C[C@H]2C(=O)NS(=O)(=O)c2cccc(Cl)c2F)c2ccccc21
> 10000 nM
CC(=O)c1cn(CC(=O)N2C[C@H](F)C[C@H]2C(=O)N(C)Cc2cccc(Cl)c2F)c2ccccc12
> 10000 nM
CC(=O)Nc1cccc2c1c(C(C)=O)cn2CC(=O)N1C[C@H](F)C[C@H]1C(=O)Nc1cccc(-c2ccccc2Cl)c1F
> 10000 nM
O=C(NCc1cccc(Cl)c1F)[C@@H]1C[C@@H](F)CN1C(=O)Cn1c2c(c3ccccc31)CCNC2
> 10000 nM
CCOP(=O)(OCC)c1cc(Cl)c(F)c(CNC(=O)[C@@H]2C[C@@H](F)CN2C(=O)Cn2cc(C(C)=O)c3ccccc32)c1
< 1000 nM
NC(=O)c1nn(CC(=O)N2C[C@H](F)C[C@H]2C(=O)Nc2cccc(-c3cc(F)c(F)cc3Cl)c2F)c2ccccc12
< 1000 nM

Quick one: give me IC50 for each item below, same order please.
1. CC(=O)c1cn(CC(=O)N2C[C@H](F)C[C@H]2C(=O)Nc2cccc(-c3ccccc3Cl)c2F)c2c(C#Cc3ncc(F)cn3)cccc12
2. NC(=O)c1nn(CC(=O)N2C[C@H](F)C[C@H]2C(=O)Nc2cccc(-c3cc(F)cc(F)c3Cl)c2F)c2ccccc12

["< 1000 nM", "< 1000 nM"]

Would you mind giving IC50 for every compound in the list below?
1. O=C(c1cn(CC(=O)N2[C@@H]3C[C@@H]3C[C@H]2C(=O)NCc2cccc(Cl)c2F)c2ccccc12)C1CC1
2. NC(=O)c1nn(CC(=O)N2[C@@H]3C[C@@H]3C[C@H]2C(=O)NCc2cccc(Cl)c2F)c2ccsc12
3. CC(=O)n1cc(NC(=O)[C@@H]2C[C@@H](F)CN2C(=O)NCc2cccc(Cl)c2F)c2ccccc21
4. NC(=O)c1nn(CC(=O)N2C[C@H](F)C[C@H]2C(=O)Nc2cccc(-c3ccc4[nH]cnc4c3Cl)c2F)c2ccccc12
5. NS(=O)(=O)c1cn(CC(=O)N2C[C@H](F)C[C@H]2C(=O)NCc2cccc(Cl)c2F)c2ccccc12
6. CC(=O)c1cn(CC(=O)N2C[C@H](F)C[C@H]2C(=O)Nc2cccc(-c3cc(F)cc(F)c3Cl)c2F)c2ccccc12
7. N#Cc1cccc2c(C(N)=O)nn(CC(=O)N3C[C@H](F)C[C@H]3C(=O)Nc3cccc(-c4ccccc4Cl)c3F)c12

1. < 1000 nM
2. < 1000 nM
3. > 10000 nM
4. < 1000 nM
5. < 1000 nM
6. < 1000 nM
7. < 1000 nM

====

In what follows, each item is paired with its IC50 for Human factor D (Homo sapiens (Human), UniProt P00746).

CC(=O)c1cn(CC(=O)N2C[C@H](F)C[C@H]2C(=O)Nc2cccc(-c3ccccc3Cl)c2F)c2c(C3CC3)cccc12
< 1000 nM
N#Cc1cn(CC(=O)N2C[C@H](F)C[C@H]2C(=O)NCc2cccc(Cl)c2F)c2ccccc12
< 1000 nM
O=C(c1cn(CC(=O)N2C[C@H](F)C[C@H]2C(=O)NCc2cccc(Cl)c2F)c2ccccc12)C1CC1
< 1000 nM
CC(=O)c1cn(CC(=O)N2C[C@H](F)C[C@H]2C(=O)Nc2cccc(Br)n2)c2ccc(C3(N4C(=O)c5ccccc5C4=O)CC3)cc12
< 1000 nM
CC(=O)c1cn(CC(=O)N2C[C@H](F)C[C@H]2C(=O)Nc2cccc(SC(F)(F)F)c2)c2cc(O)ccc12
< 1000 nM
O=C1CCCc2c1c1ccccc1n2CC(=O)N1C[C@H](F)C[C@H]1C(=O)NCc1cccc(Cl)c1F
< 1000 nM
NC(=O)c1nn(CC(=O)N2C[C@H](F)C[C@H]2C(=O)Nc2cccc(-c3c(F)cc(F)cc3Cl)n2)c2cnccc12
< 1000 nM
CC(=O)n1cc(CC(=O)N2C[C@H](F)C[C@H]2C(=O)Nc2cccc(-c3ccccc3Cl)c2F)c2ccsc21
< 1000 nM
NC(=O)c1cn(CC(=O)N2C[C@H](F)C[C@H]2c2nc3cc(-c4ccccc4Cl)ccc3[nH]2)c2ccccc12
> 10000 nM
CC(=O)c1cn(CC(=O)N2C[C@H](F)C[C@H]2C(=O)Nc2cccc(-c3ccc(F)c(F)c3Cl)c2F)c2ccccc12
< 1000 nM

Lab note: each molecule below needs its IC50 filled in.
1. CC(=O)c1ccc(Cl)c(-c2cccc(NC(=O)[C@@H]3C[C@@H](F)CN3C(=O)Cn3nc(C(N)=O)c4ccccc43)c2F)c1
2. O=C(NCc1cccc(Cl)c1F)[C@@H]1C[C@@H](F)CN1C(=O)CN1C=NS(=O)(=O)c2ccccc21

["< 1000 nM", "> 10000 nM"]

For every item in the list below, what is its measured IC50?
1. CC(=O)c1cn(CC(=O)N2C[C@H](F)C[C@H]2C(=O)NCc2cc(P(=O)(O)O)cc(Cl)c2F)c2ccccc12
2. O=C(NCc1cccc(Cl)c1F)[C@@H]1C[C@@H](F)CN1C(=O)c1csc(-c2cccnc2)n1

["< 1000 nM", "> 10000 nM"]
